Quick list: pEC50 per entry.
- experimental_target: human APJ receptor (Homo sapiens (Human))
- Sequence (P35414 whole entry): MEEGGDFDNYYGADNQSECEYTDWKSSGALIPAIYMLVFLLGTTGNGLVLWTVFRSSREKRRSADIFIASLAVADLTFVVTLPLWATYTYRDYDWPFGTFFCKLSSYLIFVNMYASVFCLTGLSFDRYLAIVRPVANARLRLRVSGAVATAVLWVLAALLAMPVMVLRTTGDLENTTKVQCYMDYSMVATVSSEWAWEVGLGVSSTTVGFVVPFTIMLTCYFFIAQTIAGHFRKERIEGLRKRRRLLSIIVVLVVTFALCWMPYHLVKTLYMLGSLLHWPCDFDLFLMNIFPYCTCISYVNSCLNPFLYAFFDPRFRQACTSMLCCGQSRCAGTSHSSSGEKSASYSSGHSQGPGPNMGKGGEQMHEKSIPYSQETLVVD
- assay_method_text: [35S]GTPγS binding assay on membranes from CHO cells stably expressing human APJ receptor
- Format: biochemical
- condition_info: [35S]GTPγS SPA, read-out: Activity hAPJ SPA EC50 IP
As a rule, pEC50 stands for the negative log10 of the concentration, concentration in M.

molecule	pEC50
COc1ncnc(OC)c1-n1c(NS(=O)(=O)[C@@H](C)[C@H](OC)c2ncc(Cl)cn2)nnc1C1CC(OC)(OC)C1 [Example 238.0]	6.92

Value of pEC50 reported for the molecule COCC1(n2c(NS(=O)(=O)[C@@H](C)[C@H](OC)c3ncc(Cl)cn3)nnc2[C@H]2C[C@H](CO)C2)CC1 (single isomer, unassigned) [Example 132.0] is 5.90

Value of pEC50 reported for the molecule COc1cccc(OC)c1-n1c(NS(=O)(=O)[C@@H](C)[C@H](C)c2ncc(Cl)cn2)nnc1C1CCC1 [Example 143.0] is 8.39

Value of pEC50 reported for the molecule COc1cccc(OC)c1-n1c(NS(=O)(=O)[C@@H](C)[C@H](OC)c2ncc(C)cn2)nnc1[C@H]1C[C@H](Cl)C1 (single isomer, unassigned) [Example 192.0] is 8.54

Value of pEC50 reported for the molecule CO[C@H](c1ncc(Cl)cn1)[C@H](C)S(=O)(=O)Nc1nnc(C2CCC2)n1C1CCOCC1 [Example 97.0] is 6.43
